The following molecules were reported with IC50 values on TYRO3 (Homo sapiens) in different studies.

# count of solved cases: 10
>>> result("COC[C@H](C)Nc1ncc2c(-c3cnn(C(C)(C)C(=O)C4C[C@H]5COC[C@H]5C4)c3)cc([C@H]3CC[C@H](O)CC3)n2n1 (stereo partly shown)")
"≤ 100 nM"
>>> result("Cc1c(-c2ccccn2)c(=O)c(C(=O)Nc2ccc(-c3cc(C4CCN(C(=O)C(C)C)CC4)n4ncnc(N)c34)cc2)cn1C1CC1")
"> 100 nM"
>>> result("CC(C)C(=O)N1CCC(c2cc(-c3ccc(NC(=O)c4cc5c(n(-c6cncc(F)c6)c4=O)CCC(C)(C)C5=O)cc3)c3c(N)ncnn23)CC1")
"> 100 nM"
>>> result("COC[C@H](C)Nc1ncc2c(-c3cnn([C@H]4CCC(C(=O)OC(C)(C)C)C4)c3)cc([C@H]3CC[C@H](O)CC3)n2n1 (stereo partly shown)")
"≤ 100 nM"
>>> result("C[C@@H]1CCCN1C1(C)CCc2ccc(-c3cnc4[nH]cc(-c5ccc(S(=O)(=O)C6CC6)cc5)c4c3)cc2CC1 (stereo partly shown)")
"100 to 1000 nM"
>>> result("CCOCc1c(C#N)cc(C(=O)Nc2ccc(-c3cc(C4CCN(C(=O)C(C)C)CC4)n4ncnc(N)c34)cc2)c(=O)n1-c1ccccc1")
"> 100 nM"
>>> result("COC[C@H](C)Nc1ncc2c(-c3ccnc(O[C@H]4CCNC4)c3)cc([C@H]3CC[C@H](O)CC3)n2n1")
"≤ 100 nM"
>>> result("C[C@@H]1CCCN1C1(C)CCc2ccc(-c3cnc4[nH]nc(-c5ccc(C(=O)N6CCC6)cc5)c4c3)cc2CC1 (stereo partly shown)")
"100 to 1000 nM"
>>> result("COc1cc2nccc(Oc3ccc(NC(=O)c4nn(CC5CCSCC5)cc(-c5ccc(C)cc5)c4=O)nc3)c2cc1OC")
"29 nM"
>>> result("COC[C@H](C)Nc1ncc2c(-c3cnn(Cc4cnccn4)c3)cc([C@H]3CC[C@H](O)CC3)n2n1")
"≤ 100 nM"

So the reported IC50 for COC[C@H](C)Nc1ncc2c(N3CC4(COC4)CC3=O)cc([C@H]3CC[C@H](O)CC3)n2n1 , on TYRO3 (Homo sapiens), turned out to be 100 to 1000 nM

For the molecule Cc1ccc(-c2cn(C3CCOCC3)nc(C(=O)Nc3ccc(Oc4ccnc5cc6c(cc45)OCCO6)cn3)c2=O)cc1 , the measured IC50 on TYRO3 (Homo sapiens) was 318 nM

Given the molecule COC[C@H](C)Nc1ncc2c([C@H]3CC[C@H](C(=O)N4CCN(C)CC4)CC3)cc([C@H]3CC[C@H](O)CC3)n2n1 and test system TYRO3 (Homo sapiens), the measured IC50 is ≤ 100 nM

###

pIC50 for TYRO3 (Homo sapiens), merged from several publications.
pIC50: −log10 of the molar value.

Consider the reported pIC50 for these molecules:
>>> result("COC[C@H](C)Nc1ncc2c(-c3cnn(CC(=O)O)c3)cc([C@H]3CC[C@H](O)CC3)n2n1")
"≥ 7.00"
>>> result("C[C@@H](CC(F)(F)F)Nc1ncc2c(OC3CCN(S(C)(=O)=O)CC3)ncc([C@H]3CC[C@H](O)CC3)c2n1")
"6.00 to 7.00"
>>> result("COC[C@H](C)Nc1ncc2c(-c3ccc(N4CCN(C)CC4)nc3)cc([C@H]3CC[C@H](O)CC3)n2n1")
"≥ 7.00"
>>> result("FC(F)C1(c2cccc(-c3ncnc4[nH]ccc34)c2)Cc2ccccc2C1")
"< 5.52"
>>> result("C[C@@H]1CCCN1C1(C)CCc2ccc(-c3cnc4[nH]nc(-c5ccc(S(=O)(=O)C6CC6)cc5)c4c3)cc2CC1 (some centres unmarked)")
"> 7.00"
>>> result("Cc1c(-c2cnn(C)c2)cc(C(=O)Nc2ccc(-c3cc(C4CCN(C(=O)C(C)C)CC4)n4ncnc(N)c34)cc2)c(=O)n1-c1cccnc1")
"< 7.00"

Short answer for CCC1(Nc2ncc3c(OC4CCOCC4)ncc([C@H]4CC[C@H](O)CC4)c3n2)CC1 : pIC50 was 6.00 to 7.00

The molecule listed as COC[C@H](C)Nc1ncc2c(-c3cnn(CC(C)(C)N4CCOCC4)c3)cc([C@H]3CC[C@H](O)CC3)n2n1 shows pIC50 equal to ≥ 7.00

pIC50 reported for this molecule CC(C)n1cc(C(=O)Nc2ccc(-c3cc(C4CCN(C(=O)N(C)C)CC4)n4ncnc(N)c34)cc2)c(=O)n(-c2cccc(F)c2)c1=O : 7.00 to 8.00

Summary for this molecule, COC[C@H](C)Nc1ncc2c(-c3ccnc(N4CCC5(CCO5)CC4)c3)cc([C@H]3CC[C@H](O)CC3)n2n1 : pIC50 is ≥ 7.00

// recorded pIC50 for COCCN1C(C)(C)CC(Oc2ncc([C@H]3CC[C@H](O)CC3)c3nc(N[C@@H]4CCOC4)ncc23)CC1(C)C : 6.00 to 7.00

Measured pIC50, C[C@@H]1CCCN1C1(C)CCc2ccc(-c3cnc4[nH]nc(-c5ccc(S(=O)(=O)C(F)(F)F)cc5)c4c3)cc2CC1 (some centres unmarked) : < 6.00

The recorded pIC50 for COC[C@H](C)Nc1ncc2c(OC3CCOCC3)ncc(-c3cn[nH]c3)c2n1 is 6.00 to 7.00

Per the record, COC[C@H](C)Nc1ncc2c(-c3ccc(CN4CCN(C)CC4)cc3)cc([C@H]3CC[C@H](O)CC3)n2n1 (single isomer, unassigned) has pIC50 of ≥ 7.00

###

// read-out IC50, gathered for TYRO3 (Homo sapiens, UniProt Q06418) from published studies

Consider the worked cases shown below.
>>> result("C[C@@H]1CCCN1C1(C)CCc2ccc(-c3cnc4[nH]nc(-c5ccc(C(=O)N[C@H]6CCOC6)cc5)c4c3)cc2CC1 (some centres unmarked)")
"> 1000 nM"
>>> result("CCCC(C)Nc1ncc2c(OC[C@H]3CC[C@@H](O)CC3)ncc([C@H]3CC[C@H](O)CC3)c2n1 (some centres unmarked)")
"≤ 100 nM"
>>> result("CC(C)(O)c1ccc(-c2n[nH]c3ncc(-c4ccc5c(c4)CCC4(CCCN4)CC5)cc23)cc1Cl (centres unmarked)")
"100 to 1000 nM"
>>> result("COCC(C)Nc1ncc2c(-c3ccc(C(C)N4CCCC4)cc3)cc(C3CCC(O)CC3)n2n1 (centres unmarked)")
"≤ 100 nM"
>>> result("C[C@@H]1CCCN1C1(C)CCc2ccc(-c3cnc4[nH]nc(-c5ccc(C(N)=O)cc5)c4c3)cc2CC1 (some centres unmarked)")
"< 100 nM"
>>> result("COC[C@H](C)Nc1ncc2c(-c3ccnc(Oc4cccnc4)c3)cc([C@H]3CC[C@H](O)CC3)n2n1")
"≤ 100 nM"
>>> result("COc1cc2nccc(Oc3ccc(NC(=O)c4nn(C5CCOCC5)cc(-c5ccc(C)cc5)c4=O)nc3)c2cc1OC")
"14 nM"
>>> result("COC[C@H](C)Nc1ncc2c(-c3ccnc(O[C@H]4CCCNC4)c3)cc([C@H]3CC[C@H](O)CC3)n2n1")
"≤ 100 nM"
>>> result("CCN(C)C(=O)N1CCC(c2cc(-c3ccc(NC(=O)c4cc5c(n(-c6ccc(F)cc6)c4=O)CCCC5=O)cc3)c3c(N)ncnn23)CC1")
"> 100 nM"
>>> result("COC[C@H](C)Nc1ncc2c(-c3ccnc(C)c3)cc([C@H]3CC[C@](C)(O)CC3)n2n1")
"≤ 100 nM"

# N#C[C@H]1CC[C@@H](c2cc(-c3ccc(NC(=O)c4cccn(-c5ccc(F)cc5)c4=O)cc3)c3c(N)ncnn32)CC1 with TYRO3 (Homo sapiens, UniProt Q06418): IC50 is 10 to 100 nM

###

# merged literature set: pIC50 with UniProt:Q06418
pIC50: −log10 of the molar value.

Take a look at these entries with their results.
>>> result("CC[C@H](C)Nc1ncc2c(O[C@H]3CC[C@H](N(C)C)C3)ncc([C@H]3CC[C@H](O)CC3)c2n1")
"≥ 7.00"
>>> result("COC[C@H](C)Nc1ncc2c(-c3cnn(CC4CC(=O)N(C)C4)c3)cc([C@H]3CC[C@H](O)CC3)n2n1 (stereo partly drawn)")
"≥ 7.00"
>>> result("CN(C)S(=O)(=O)c1cccc(-c2cnc(OC3CCOCC3)c3cnc(NC4(C)CC4)nc23)c1")
"6.00 to 7.00"
>>> result("COC[C@H](C)Nc1ncc2c(CC#N)cc([C@H]3CC[C@H](O)CC3)n2n1")
"≥ 7.00"
>>> result("CCCC(C)Nc1ncc2c(NC3CCNCC3)ncc([C@H]3CC[C@H](O)CC3)c2n1 (stereo partly drawn)")
"≥ 7.00"
>>> result("COC[C@H](C)Nc1ncc2c(-c3ccnc(N4CCC(C)(O)C4)c3)cc(C3CCC(O)CC3)n2n1 (stereo partly drawn)")
"≥ 7.00"

The observed pIC50 for COC[C@H](C)Nc1ncc2c(-c3ccnc(N4CCc5cnn(C)c5C4)c3)cc([C@H]3CC[C@H](O)CC3)n2n1 when tested with UniProt:Q06418 stands at ≥ 7.00

Record Cc1cc(-c2n[nH]c3ncc(-c4ccc5c(c4)CC[C@@H](N4CCCC4)CC5)cc23)cc(C)c1C(N)=O / UniProt:Q06418, pIC50 recorded as > 7.00

Tested system UniProt:Q06418; pIC50 recorded for COC[C@H](C)Nc1ncc2c(-c3cnn(CC(=O)NS(C)(=O)=O)c3)cc([C@H]3CC[C@H](O)CC3)n2n1 was ≥ 7.00
